- System: Aspergillus niger
- method: Antifungal activity against Aspergillus niger assessed as diameter of inhibition zone at 25 ug/well after 48 hrs by agar well diffusion method
- Format: functional
- conditionSet: read-out: DIZ
Class key for zone of inhibition at 25 µg/disc values: bucket 1 (below 20 mm), bucket 2 (20 mm to below 30 mm), bucket 3 (30 mm or more)

# count of solved cases: 3
Cc1cc(SCc2nnc(-c3ccc([N+](=O)[O-])cc3)s2)nc(SCc2nnc(-c3ccc([N+](=O)[O-])cc3)s2)n1 ... bucket 2
Cc1cc(SCc2nnc(-c3ccc(Cl)cc3)n2N)nc(SCc2nnc(-c3ccc(Cl)cc3)n2N)n1 ... bucket 3
Cc1cc(SCc2nnc(-c3ccccc3)n2N)nc(SCc2nnc(-c3ccccc3)n2N)n1 ... bucket 1

Inquiry: Which bin, given its zone of inhibition at 25 µg/disc, does "Cc1cc(SCc2nnc(-c3ccccc3)s2)nc(SCc2nnc(-c3ccccc3)s2)n1" occupy?
Reply text: bucket 1

Inquiry: Into which category would you place "Cc1cc(SCc2nnc(-c3ccc([N+](=O)[O-])cc3)o2)nc(SCc2nnc(-c3ccc([N+](=O)[O-])cc3)o2)n1" ?
Reply text: bucket 2

Inquiry: Which class is correct for the following molecule? "Cc1cc(SCc2nnc(-c3ccc(Br)cc3)s2)nc(SCc2nnc(-c3ccc(Br)cc3)s2)n1"
Reply text: bucket 2

* * *

Attribute: zone of inhibition at 25 µg/disc
- Test system: Aspergillus niger
- method: Antifungal activity against Aspergillus niger assessed as diameter of inhibition zone at 25 ug/well after 48 hrs by agar well diffusion method
- Format: functional
- conditionSet: read-out: DIZ
# unit: mm | format: bare number

Past entries and their recorded results:
Cc1cc(SCc2nnc(-c3ccc([N+](=O)[O-])cc3)n2N)nc(SCc2nnc(-c3ccc([N+](=O)[O-])cc3)n2N)n1 ... 35
Cc1cc(SCc2nnc(-c3ccc(Cl)cc3)o2)nc(SCc2nnc(-c3ccc(Cl)cc3)o2)n1 ... 20
Cc1ccc(-c2nnc(CSc3cc(C)nc(SCc4nnc(-c5ccc(C)cc5)n4N)n3)n2N)cc1 ... 12
CC(=O)N1CCN(c2ccc(OCC3COC(Cn4ccnc4)(c4ccc(Cl)cc4Cl)O3)cc2)CC1 (centres undefined) ... 31
Cc1cc(SCc2nnc(-c3ccc(Cl)cc3)s2)nc(SCc2nnc(-c3ccc(Cl)cc3)s2)n1 ... 26

Inquiry: What does the data say about its zone of inhibition at 25 µg/disc? Entry: "Cc1cc(SCc2nnc(-c3ccc(Br)cc3)o2)nc(SCc2nnc(-c3ccc(Br)cc3)o2)n1"
Reply text: 15

Inquiry: Any idea what zone of inhibition at 25 µg/disc was measured for "Cc1cc(SCc2nnc(-c3ccc(Br)cc3)n2N)nc(SCc2nnc(-c3ccc(Br)cc3)n2N)n1" ?
Reply text: 29

Inquiry: Given the entry "Cc1cc(SCc2nnc(-c3ccccc3)o2)nc(SCc2nnc(-c3ccccc3)o2)n1" , report its measured zone of inhibition at 25 µg/disc.
Reply text: 16

Inquiry: Entry under review: "Cc1ccc(-c2nnc(CSc3cc(C)nc(SCc4nnc(-c5ccc(C)cc5)s4)n3)s2)cc1" . Reported zone of inhibition at 25 µg/disc?
Reply text: 11
